Kindly state Log[IC50±] (μ) for each of the entries shown.
assay-system: MOR
assay-notes: Radioligand binding assay at μ opioid receptor
assay-context: log IC50 ± error
Non-standard residues stand in square brackets, D forms with d. Residues, ends and D or L forms follow the SMILES beside them. *: point of attachment. NH(3,5-(CF3)2-benzyl) = FC(F)(F)c1cc(CN*)cc(C(F)(F)F)c1; NMeF = CN[C@@H](Cc1ccccc1)C(=O)O
Answers are plain numbers.

CC(C)C[C@H](NC(=O)[C@@H]1CCCN1C(=O)[C@H](CCCCN)NC(=O)[C@H](Cc1ccccc1)N(C)C(=O)CNC(=O)[C@@H](C)NC(=O)[C@@H](N)Cc1ccc(O)cc1)C(=O)N[C@@H](Cc1c[nH]c2ccccc12)C(=O)NCc1cc(C(F)(F)F)cc(C(F)(F)F)c1 [AKG174] (H-Y[dA]G[NMeF]KPLW-{NH(3,5-(CF3)2-benzyl)}; N-terminus assumed)    −7.81

Ask: Please list Log[IC50±] (μ) recorded for the compound CC(C)C[C@H](NC(=O)[C@@H]1CCCN1C(=O)c1ccc(NC(=O)[C@H](Cc2ccccc2)N(C)C(=O)CNC(=O)[C@@H](C)NC(=O)[C@@H](N)Cc2ccc(O)cc2)cc1)C(=O)N[C@@H](Cc1c[nH]c2ccccc12)C(=O)NCc1cc(C(F)(F)F)cc(C(F)(F)F)c1 [AKG176]
Reply: −8.69
